Every entry's value here was drawn from patent US20250353853A1.

- System: ZIKV replicon in Vero cells
- Measurement Notes: ZIKV Replication Inhibition Assay (replicon, NanoLuc)
- Run Parameters: Zika virus, Vero, 72 h, read-out: Zika Replicon EC50
Measurement Type: EC50

Look over these answered cases.
O=C([N-]c1c[n+](Cc2cccc(-c3cccnc3)c2)no1)Nc1cccc(C(F)(F)F)c1 :: 100 to 1000 nM
O=C([N-]c1c[n+](Cc2ccc(-c3ccccc3)cc2)no1)Nc1cccc(C(F)(F)F)c1 :: 100 to 1000 nM
Cc1cc(NC(=O)[N-]c2c[n+](Cc3ccc(-c4c(C)noc4C)cn3)no2)cc(C(F)(F)F)c1 :: 100 to 1000 nM
COc1ncc(-c2ccc(C[n+]3cc([N-]C(=O)Nc4cccc(C(F)(F)F)c4)on3)nc2)c(C)n1 :: < 100 nM
O=C([N-]c1c[n+](Cc2csc(-c3cncnc3)c2)no1)Nc1cccc(C(F)(F)F)c1 :: 100 to 1000 nM
COc1cc(-c2ccc(C[n+]3cc([N-]C(=O)Nc4cccc(C(F)(F)F)c4)on3)cc2)ccn1 :: 100 to 1000 nM
O=C([N-]c1c[n+](Cc2ccc(-c3cncnc3)cn2)no1)Nc1cncc(C(F)(F)F)c1 :: 100 to 1000 nM
NCc1ccccc1-c1ccc(C[n+]2cc([N-]C(=O)Nc3cccc(C(F)(F)F)c3)on2)nc1 :: 100 to 1000 nM

Hello, I would appreciate it if you could give EC50 for each entry below.
1. O=C([N-]c1c[n+](Cc2ccc(-c3cnn(C4CCNCC4)c3)cn2)no1)Nc1cccc(C(F)(F)F)c1
2. Cc1noc(C)c1-c1ccc(C[n+]2cc([N-]C(=O)Nc3cccc(C(F)F)c3)on2)nc1
3. Cc1nn(C)c(C)c1-c1ccc(C[n+]2cc([N-]C(=O)Nc3cncc(C(F)(F)F)c3)on2)nc1
4. Cc1noc(C)c1-c1ccc([C@@H](C)[n+]2cc([N-]C(=O)Nc3ccnc(C(F)(F)F)c3)on2)cc1
5. COc1ncncc1-c1cccc(C[n+]2cc([N-]C(=O)Nc3cccc(C(F)(F)F)c3)on2)c1

result:
["1000 to 20000 nM", "100 to 1000 nM", "100 to 1000 nM", "100 to 1000 nM", "100 to 1000 nM"]

Hi team, please reply with EC50 for each item in this list.
1. COc1cc(-c2ccc(C[n+]3cc([N-]C(=O)Nc4cccc(C(F)(F)F)c4)on3)nc2)c(OC)nn1
2. Cc1noc(C)c1-c1cnc(C[n+]2cc([N-]C(=O)Nc3cccc(C(F)(F)F)c3)on2)nc1

result:
1. < 100 nM
2. < 100 nM
